Test system: MOG-G-CCM (Low Grade Glioma)
protocol-notes: Bliss excess, mean over the matrix (fraction); higher = more synergy
Could you please report measured Bliss excess for the items listed next?

# count of solved cases: 3
>>> measurement("CC(=O)c1c(C)c2cnc(Nc3ccc(N4CCNCC4)cn3)nc2n(C2CCCC2)c1=O [Palbociclib] + CC1(C)CCC(CN2CCN(c3ccc(C(=O)NS(=O)(=O)c4ccc(NCC5CCOCC5)c([N+](=O)[O-])c4)c(Oc4cnc5[nH]ccc5c4)c3)CC2)=C(c2ccc(Cl)cc2)C1 [Venetoclax] (first compound max 10 µM, 7x7, partner max 1 µM)")
-0.0493
>>> measurement("Cc1c2c(nn1C)CSCc1cc(n(C)n1)CSc1cc(c3ccccc3c1)OCCCc1c(C(=O)O)n(C)c3c-2c(Cl)ccc13 [AZD5991] + C=CCn1c(=O)c2cnc(Nc3ccc(N4CCN(C)CC4)cc3)nc2n1-c1cccc(C(C)(C)O)n1 [AZD1775] (first compound max 1 µM, partner max 1 µM)")
-0.0287
>>> measurement("CN(C)CCCOc1ccc(-c2ccc3ncc4c(c3c2)n(C2CCOCC2)c(=O)n4C)cn1 [AZD0156] + C[C@@H]1COCCN1C2=NC(=NC(=C2)C3(CC3)[S@](=N)(=O)C)C4=C5C=CNC5=NC=C4 [AZD6738] (first compound max 1 µM, 7x7, partner max 10 µM)")
-0.0593

Input line: Value wanted: Bliss excess (MOG-G-CCM (Low Grade Glioma)) of entry NC1(C(=O)N[C@@H](CCO)c2ccc(Cl)cc2)CCN(c2ncnc3[nH]ccc23)CC1 [Capivasertib] + CC(=O)c1c(C)c2cnc(Nc3ccc(N4CCNCC4)cn3)nc2n(C2CCCC2)c1=O [Palbociclib] (first compound max 10 µM, 7x7, partner max 10 µM)
Output line: -0.0389

====

Please provide measured combination Emax for the entries that follow.
Test system: IM-95 (Gastric Carcinoma)
protocol-notes: combination Emax (second highest fraction inhibited in the dose matrix, 72 h); higher = more inhibition; extreme values may be limits of the assay
One number for each entry.

>>> measurement("CN(C)CCCOc1ccc(-c2ccc3ncc4c(c3c2)n(C2CCOCC2)c(=O)n4C)cn1 [AZD0156] + C=CCn1c(=O)c2cnc(Nc3ccc(N4CCN(C)CC4)cc3)nc2n1-c1cccc(C(C)(C)O)n1 [AZD1775] (first compound max 1 µM, partner max 1 µM)")
0.454

Continue with the molecule presented below.
Input line: Bench note: what combination Emax did NC1(C(=O)N[C@@H](CCO)c2ccc(Cl)cc2)CCN(c2ncnc3[nH]ccc23)CC1 [Capivasertib] + Cn1cnc2c(F)c(Nc3ccc(Br)cc3Cl)c(C(=O)NOCCO)cc21 [Selumetinib] (first compound max 10 µM, 7x7, partner max 10 µM) show?
Output line: 0.502

====

Tested on: ESO51 (Esophageal Adenocarcinoma)
protocol-notes: Bliss excess, mean over the matrix (fraction); higher = more synergy
quantity-name: Bliss excess
Numbers only.

>>> measurement("COc1nnc2ccc(N3CCC(c4ccc(OCCN5CCN(C)C(=O)[C@H]5C)cc4)CC3)nn12 [AZD5153] + C=CCn1c(=O)c2cnc(Nc3ccc(N4CCN(C)CC4)cc3)nc2n1-c1cccc(C(C)(C)O)n1 [AZD1775] (first compound max 1 µM, partner max 1 µM)")
-0.0594
>>> measurement("Cc1c2c(nn1C)CSCc1cc(n(C)n1)CSc1cc(c3ccccc3c1)OCCCc1c(C(=O)O)n(C)c3c-2c(Cl)ccc13 [AZD5991] + CCN(CCO)CCCOc1ccc2c(Nc3cc(CC(=O)Nc4cccc(F)c4)[nH]n3)ncnc2c1 [AZD2811] (first compound max 1 µM, 7x7, partner max 1 µM)")
0.0031
>>> measurement("NC1(C(=O)N[C@@H](CCO)c2ccc(Cl)cc2)CCN(c2ncnc3[nH]ccc23)CC1 [Capivasertib] + COc1nnc2ccc(N3CCC(c4ccc(OCCN5CCN(C)C(=O)[C@H]5C)cc4)CC3)nn12 [AZD5153] (first compound max 10 µM, 7x7, partner max 1 µM)")
0.0603
>>> measurement("COc1cccc(OCCCN)c1-c1cc(Nc2cnc(C#N)cn2)n[nH]1 [Prexasertib] + C=CCn1c(=O)c2cnc(Nc3ccc(N4CCN(C)CC4)cc3)nc2n1-c1cccc(C(C)(C)O)n1 [AZD1775] (first compound max 1 µM, partner max 1 µM)")
-0.0153
>>> measurement("COc1nnc2ccc(N3CCC(c4ccc(OCCN5CCN(C)C(=O)[C@H]5C)cc4)CC3)nn12 [AZD5153] + CN(CC[C@H](CSC1=CC=CC=C1)NC2=C(C=C(C=C2)S(=O)(=O)NC(=O)C3=CC=C(C=C3)N4CCC(CC4)[C@H](C5=CC=CC=C5C6=CC=C(C=C6)Cl)O)S(=O)(=O)C(F)(F)F)CCO [AZD4320] (first compound max 1 µM, 7x7, partner max 1 µM)")
-0.0079

For every item below, please supply its Bliss excess.
1. CN(CCO)CC[C@H](CSc1ccccc1)Nc1ccc(S(=O)(=O)NC(=O)c2ccc(N3CCC([C@@H](O)c4ccccc4-c4ccc(Cl)cc4)CC3)cc2)cc1S(=O)(=O)C(F)(F)F [AZD4320] + C1CN(CCC1(C(=O)N[C@@H](CCO)C2=CC=C(C=C2)Cl)N)C3=NC=NC4=C3C=CN4 [Capivasertib] (first compound max 1 µM, 7x7, partner max 3 µM)
2. COc1nnc2ccc(N3CCC(c4ccc(OCCN5CCN(C)C(=O)[C@H]5C)cc4)CC3)nn12 [AZD5153] + Cn1cnc2c(F)c(Nc3ccc(Br)cc3Cl)c(C(=O)NOCCO)cc21 [Selumetinib] (first compound max 1 µM, 7x7, partner max 10 µM)
3. CCN(CCO)CCCOc1ccc2c(Nc3cc(CC(=O)Nc4cccc(F)c4)[nH]n3)ncnc2c1 [AZD2811] + O=C(c1cc(Cc2n[nH]c(=O)c3ccccc23)ccc1F)N1CCN(C(=O)C2CC2)CC1 [Olaparib] (first compound max 1 µM, 7x7, partner max 10 µM)
4. CN(C)CCCOc1ccc(-c2ccc3ncc4c(c3c2)n(C2CCOCC2)c(=O)n4C)cn1 [AZD0156] + C=CCn1c(=O)c2cnc(Nc3ccc(N4CCN(C)CC4)cc3)nc2n1-c1cccc(C(C)(C)O)n1 [AZD1775] (first compound max 1 µM, partner max 1 µM)
5. C=CCn1c(=O)c2cnc(Nc3ccc(N4CCN(C)CC4)cc3)nc2n1-c1cccc(C(C)(C)O)n1 [AZD1775] + O=C(c1cc(Cc2n[nH]c(=O)c3ccccc23)ccc1F)N1CCN(C(=O)C2CC2)CC1 [Olaparib] (first compound max 1 µM, partner max 10 µM)
6. CC1(C)CCC(CN2CCN(c3ccc(C(=O)NS(=O)(=O)c4ccc(NCC5CCOCC5)c([N+](=O)[O-])c4)c(Oc4cnc5[nH]ccc5c4)c3)CC2)=C(c2ccc(Cl)cc2)C1 [Venetoclax] + Cc1cc2ncnn2cc1Nc1ncc2c(n1)n(C1CCOCC1)c(=O)n2C [AZD7648] (first compound max 1 µM, 7x7, partner max 10 µM)
7. C[C@@H]1COCCN1c1cc(C2([S@](C)(=N)=O)CC2)nc(-c2ccnc3[nH]ccc23)n1 [AZD6738] + O=C(c1cc(Cc2n[nH]c(=O)c3ccccc23)ccc1F)N1CCN(C(=O)C2CC2)CC1 [Olaparib] (first compound max 10 µM, 7x7, partner max 10 µM)

Output line:
1: -0.0434; 2: -0.0408; 3: -0.0379; 4: 0.0363; 5: -0.0917; 6: -0.0308; 7: -0.102

Input line: Give ESO51 (Esophageal Adenocarcinoma) Bliss excess for CCN(CCO)CCCOc1ccc2c(Nc3cc(CC(=O)Nc4cccc(F)c4)[nH]n3)ncnc2c1 [AZD2811] + C=CCn1c(=O)c2cnc(Nc3ccc(N4CCN(C)CC4)cc3)nc2n1-c1cccc(C(C)(C)O)n1 [AZD1775] (first compound max 1 µM, partner max 1 µM)
Output line: -0.0002

====

Give measured Bliss excess for each item. Keep answers brief.
System: MN-60 (B-Lymphoblastic Leukemia)
protocol-notes: Bliss excess, mean over the matrix (fraction); higher = more synergy
Give bare numbers.

See these solved cases before continuing.
>>> measurement("C[C@@H]1COCCN1c1cc(C2([S@](C)(=N)=O)CC2)nc(-c2ccnc3[nH]ccc23)n1 [AZD6738] + O=C(c1cc(Cc2n[nH]c(=O)c3ccccc23)ccc1F)N1CCN(C(=O)C2CC2)CC1 [Olaparib] (first compound max 10 µM, 7x7, partner max 10 µM)")
-0.042
>>> measurement("Cc1cc2ncnn2cc1Nc1ncc2c(n1)n(C1CCOCC1)c(=O)n2C [AZD7648] + C[C@@H]1COCCN1C2=NC(=NC(=C2)C3(CC3)[S@](=N)(=O)C)C4=C5C=CNC5=NC=C4 [AZD6738] (first compound max 10 µM, 7x7, partner max 10 µM)")
-0.0135
>>> measurement("C=CCn1c(=O)c2cnc(Nc3ccc(N4CCN(C)CC4)cc3)nc2n1-c1cccc(C(C)(C)O)n1 [AZD1775] + C1CN(CCC1(C(=O)N[C@@H](CCO)C2=CC=C(C=C2)Cl)N)C3=NC=NC4=C3C=CN4 [Capivasertib] (first compound max 3 µM, partner max 3 µM)")
-0.0565

Input line: Bliss excess lookup needed for COc1cccc(OCCCN)c1-c1cc(Nc2cnc(C#N)cn2)n[nH]1 [Prexasertib] + O=C(c1cc(Cc2n[nH]c(=O)c3ccccc23)ccc1F)N1CCN(C(=O)C2CC2)CC1 [Olaparib] (first compound max 1 µM, 7x7, partner max 10 µM) , thanks.
Output line: -0.0494

The reported numbers originate from the supplement of paper PMC11061612.
